- system: FOXO4 forkhead domain (FHD) (95-195) (UniProt P98177 95-195)
- Sequence (P98177 95-195): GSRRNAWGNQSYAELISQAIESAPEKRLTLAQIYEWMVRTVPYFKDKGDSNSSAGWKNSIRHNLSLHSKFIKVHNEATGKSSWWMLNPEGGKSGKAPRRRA
- method_description: fluorescence polarisation
Ends that are not written are not given here.
assay_metric: pKd
Numbers only, as −log10 of the molar value.

Ask: Reported pKd, binder DLMLSPDDIEQWFTED (also: FITC label, position not given here) [FITC-labeled p53 TAD PEP (42-57)] : ____
Reply: 6.96
